Molecular target: T1, human mature TGFβ1 (Homo sapiens, UniProt P01137)
T1 construct: Transforming Growth Factor-beta 1, human, mature form (cut from the precursor); also called TGFb1; source: bought: PeproTech
T1 sequence (P01137 279-390): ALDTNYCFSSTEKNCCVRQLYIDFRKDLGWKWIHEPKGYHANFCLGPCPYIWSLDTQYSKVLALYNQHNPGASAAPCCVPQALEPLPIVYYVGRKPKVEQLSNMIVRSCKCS
Assay: SPR; Biacore T200; antibody captured on a Protein A sensor chip (about 90 RU); mature TGFβ isoform injected, five-fold dilutions 0.008 nM to 5 nM; HBS-EP pH 7.4, 150 mM NaCl; 37 °C; 100 μl/min; 3 min association, 60 min dissociation; one-to-one Langmuir model, global fit
Details: both partners purified
pKd: −log10 of the molar value.
For each record, write down the corresponding pKd.

**Q:** Please list pKd recorded for the binder h4A11.v2.2 (antibody, V domains shown, as the VH of m7 (h4A11.v2) with the stated change; numbers count on: Kabat numbering of the heavy chain; as the VL of m7 (h4A11.v2); human IgG1; also called v2.2_Q81N; source: Expi293F, transient, purified (Protein A, SEC)) VH: EQQLVESGGGLVQPGGSLRLSCAVSGFSLSSYTVNWVRQAPGKGLEWIGYISYGGSAYYASWANGRFTISKDSAKNSVYLNMNSLRAEDTAVYFCARHMQVGGAPTGSMAAFDPWGPGTLVTVSS VL: DAQLTQSPSSLSASVGDRVTITCQSSQSVYNNNYLSWFQQKPGKPPKLLIYGASTLTSGVPSRFSGSGSGTDFTLTISSLQPEDFATYYCAGGYSGSSDKYAFGGGTKVEIK
**A:** < 8.30

**Q:** Please list pKd recorded for the binder h4A11.v2.6 (antibody, V domains shown, as the VH of m7 (h4A11.v2) with the stated changes; numbers count on: Kabat numbering of the heavy chain; as the VL of m7 (h4A11.v2); human IgG1; also called v2.6_ R19S, Y79S, Q81S; source: Expi293F, transient, purified (Protein A, SEC)) VH: EQQLVESGGGLVQPGGSLSLSCAVSGFSLSSYTVNWVRQAPGKGLEWIGYISYGGSAYYASWANGRFTISKDSAKNSVSLSMNSLRAEDTAVYFCARHMQVGGAPTGSMAAFDPWGPGTLVTVSS VL: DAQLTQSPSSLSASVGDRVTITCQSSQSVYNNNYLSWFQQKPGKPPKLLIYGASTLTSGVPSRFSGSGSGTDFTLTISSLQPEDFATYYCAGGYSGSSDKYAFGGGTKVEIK
**A:** < 8.30

**Q:** Please list pKd recorded for the binder h4A11.v7.4 (antibody, V domains shown, as the VH of m12 (h4A11.v7); numbers count on: Kabat numbering of the heavy chain; as the VL of m12 (h4A11.v7); human IgG1; also called v7.4_S19R, S79Y, K81R; source: Expi293F, transient, purified (Protein A, SEC)) VH: EQQLQESGPGLVKPSETLRLTCTVTGFSLSSYTVNWVRQPAGKGLEWIGYISYGGSAYYASWANGRFTISKDSSKNQVYLRLSSVTAADTAVYFCARHMQVGGAPTGSMAAFDPWGPGTLVTVSS VL: EAVLTQSPGTLSLSPGERATLSCQSSQSVYNNNYLSWFQQKPGQPPRLLIYGASTLTSGVPDRFSGSGSGTDFTLTISRLEPEDFAVYYCAGGYSGSSDKYAFGGGTKVEIK
**A:** < 8.30
